# tested system: MCH-5 (Homo sapiens, UniProt Q14790)
# Sequence (Q14790 217-374 limits assumed, species assumed): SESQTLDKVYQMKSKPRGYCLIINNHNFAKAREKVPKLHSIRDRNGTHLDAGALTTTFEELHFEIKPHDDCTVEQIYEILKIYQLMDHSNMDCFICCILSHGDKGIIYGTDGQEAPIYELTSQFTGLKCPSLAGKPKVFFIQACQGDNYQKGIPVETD
# Sequence (Q14790 385-479 limits assumed, species assumed): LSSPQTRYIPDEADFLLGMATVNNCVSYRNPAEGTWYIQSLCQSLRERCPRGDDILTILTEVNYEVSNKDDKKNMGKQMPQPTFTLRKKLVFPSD
# method notes: Dissociation constant Ki and irreversible rate constant k3 for irreversible inhibitors (Mch5)
# Format: biochemical
# run conditions: continuous assay 60 min, reaction initiated by adding enzyme to substrate-inhibitor mixture
Consider the following compounds and their measured Ki readings.
Write down the numeric answer in nM and omit the unit.

CC(C)[C@H](NC(=O)C(=O)Nc1cccc2ccccc12)C(=O)N[C@@H](CC(=O)O)C(=O)COc1c(F)cccc1F [Example 5]: 5

IN: I would be grateful if you could share the reported Ki for C[C@H](NC(=O)C(=O)Nc1ccccc1C(C)(C)C)C(=O)N[C@@H](CC(=O)O)C(=O)COC(=O)c1c(Cl)cccc1Cl [Example 76] .
OUT: 22

IN: I would be grateful if you could share the reported Ki for C[C@H](NC(=O)C(=O)Nc1ccccc1Cl)C(=O)N[C@@H](CC(=O)O)C(=O)COC(=O)c1c(Cl)cccc1Cl [Example 58] .
OUT: 7.1

IN: I would be grateful if you could share the reported Ki for C[C@H](NC(=O)C(=O)Nc1ccc(F)cc1)C(=O)N[C@@H](CC(=O)O)C(=O)COP(=O)(c1ccccc1)c1ccccc1 [Example 43] .
OUT: 3.6

IN: I would be grateful if you could share the reported Ki for C[C@H](NC(=O)C(=O)Nc1cc(C(F)(F)F)ccc1N1CCCC1)C(=O)N[C@@H](CC(=O)O)C(=O)COP(=O)(c1ccccc1)c1ccccc1 [Example 46] .
OUT: 4.4

IN: I would be grateful if you could share the reported Ki for C[C@H](NC(=O)C(=O)NCc1cccc2ccccc12)C(=O)N[C@@H](CC(=O)O)C(=O)COP(=O)(c1ccccc1)c1ccccc1 [Example 35] .
OUT: 23

---

Consider the following compounds and their measured MCH-5 k3/Ki readings.
# tested system: MCH-5 (Homo sapiens)
# method notes: Dissociation constant Ki and irreversible rate constant k3 for irreversible inhibitors (Mch5)
# Format: biochemical
# run conditions: continuous assay 60 min, reaction initiated by adding enzyme to substrate-inhibitor mixture

Reference set, count: 5
C[C@H](NC(=O)C(=O)Nc1cccc2c1CCCC2)C(=O)N[C@@H](CC(=O)O)C(=O)COC(=O)c1c(Cl)cccc1Cl [Example 62]: 21,200 moles^−1 seconds^−1
CC(C)[C@H](NC(=O)C(=O)Nc1ccccc1)C(=O)N[C@@H](CC(=O)O)C(=O)COc1c(F)c(F)cc(F)c1F: 598,000 moles^−1 seconds^−1
C[C@H](NC(=O)C(=O)NCc1cccc2ccccc12)C(=O)N[C@@H](CC(=O)O)C(=O)COP(=O)(c1ccccc1)c1ccccc1: 82,700 moles^−1 seconds^−1
C[C@H](NC(=O)C(=O)Nc1ccccc1-c1ccccc1)C(=O)N[C@@H](CC(=O)O)C(=O)COP(=O)(c1ccccc1)c1ccccc1: 207,000 moles^−1 seconds^−1
CC(C)[C@H](NC(=O)C(=O)Nc1cccc2ccccc12)C(=O)NC(CC(=O)O)C(=O)CF (mixture of isomers): 1,160,000 moles^−1 seconds^−1

IN: What measured MCH-5 k3/Ki is associated with `CC(C)[C@H](NC(=O)C(=O)Nc1nc2ccccc2[nH]1)C(=O)N[C@@H](CC(=O)O)C(=O)COc1c(F)c(F)cc(F)c1F` on MCH-5 (Homo sapiens)?
OUT: 20,800 moles^−1 seconds^−1

---

# tested system: CPP32 (Homo sapiens, UniProt P42574)
# Sequence (P42574 29-175 limits assumed): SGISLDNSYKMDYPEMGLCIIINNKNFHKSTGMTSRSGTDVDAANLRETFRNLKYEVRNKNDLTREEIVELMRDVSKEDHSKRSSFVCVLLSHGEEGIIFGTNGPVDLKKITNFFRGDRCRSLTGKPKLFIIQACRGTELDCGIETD
# Sequence (P42574 176-277 limits assumed): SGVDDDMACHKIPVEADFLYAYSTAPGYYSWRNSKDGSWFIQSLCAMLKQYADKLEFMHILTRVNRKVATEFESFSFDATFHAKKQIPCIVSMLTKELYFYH
# method notes: Dissociation constant Ki and irreversible rate constant k3 for irreversible inhibitors (CPP32)
# Assay type: biochemical
# run conditions: continuous assay 60 min, reaction initiated by adding enzyme to substrate-inhibitor mixture
Where a SMILES comes first, the peptide text is derived from it. The star is where a group is joined. Cbz = O=C(OCc1ccccc1)*; CH2F = FC*
readout: CPP32 k3/Ki

Reference set, count: 3
C[C@H](NC(=O)C(=O)Nc1ccc(F)cc1)C(=O)N[C@@H](CC(=O)O)C(=O)COP(=O)(c1ccccc1)c1ccccc1: 268,000 moles^−1 seconds^−1
C[C@H](NC(=O)C(=O)Nc1cc(C(C)(C)C)ccc1C(C)(C)C)C(=O)N[C@@H](CC(=O)O)C(=O)COc1c(F)c(F)cc(F)c1F: 221,000 moles^−1 seconds^−1
CC(NC(=O)C(NC(=O)OCc1ccccc1)C(C)C)C(=O)NC(CC(=O)O)C(=O)CF (stereo not drawn) [refer., Cbz-ValAlaAsp-CH2F, reference compound] (Cbz-Val-Ala-Asp-CH2F; configuration not given here): 12,200 moles^−1 seconds^−1

IN: I would be grateful if you could share the reported CPP32 k3/Ki for `CC(C)[C@H](NC(=O)C(=O)Nc1cc(C(C)(C)C)ccc1C(C)(C)C)C(=O)N[C@@H](CC(=O)O)C(=O)COc1c(F)c(F)cc(F)c1F` .
OUT: 70,600 moles^−1 seconds^−1
